target: SETD2(1434-1711) (Homo sapiens, UniProt Q9BYW2); construct: SETD2 (1434-1711) Assay; catalogue N/A; experiment: SETD2 (1434-1711) assay; assay type: biochemical; details: read-out: SETD2 (1434-1711)
Sequence (Q9BYW2 1434-1711): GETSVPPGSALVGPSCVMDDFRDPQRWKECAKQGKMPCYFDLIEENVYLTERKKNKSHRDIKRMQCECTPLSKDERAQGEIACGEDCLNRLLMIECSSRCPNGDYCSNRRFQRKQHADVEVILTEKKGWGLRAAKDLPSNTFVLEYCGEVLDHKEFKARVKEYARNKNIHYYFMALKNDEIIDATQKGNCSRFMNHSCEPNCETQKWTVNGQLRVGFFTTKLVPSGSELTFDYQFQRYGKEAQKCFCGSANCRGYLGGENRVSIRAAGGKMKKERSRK
What pIC50 was measured for each of the following?
# pIC50 is unitless: minus log10 of the molar concentration; print number only

Find the measured pIC50 of CNC(=O)CCc1cccc(NC(=O)c2cc3c(F)ccc(C)c3[nH]2)c1 and report it.
6.40

Please supply the value of reported pIC50 for the item Cc1cccc2cc(C(=O)NC(c3cccc(CN(C)C)n3)C3CC3)[nH]c12 (stereo not shown)
4.15

Tell me pIC50 reported for Cc1ccc(F)c2cc(C(=O)NC(c3nn4ccccc4c3C)C3CC3)[nH]c12 (stereo not shown)
6.15

Give recorded pIC50. CC(=O)N[C@H]1CC[C@H](NC(=O)c2cc3c(F)ccc(C)c3[nH]2)CC1
4.88
